Record: GI50 reported on tumor cell lines.
value-kind: GI50 (µM)

1. CCOC(=O)[C@@H]1CC2=C(C(=O)c3c(cc4ccccc4c3OC(C)=O)C2=O)[C@@H](O)O1 (relative stereo) [BCH-657]: 1.17
2. COC(=O)[C@H]1CC2=C(C(=O)c3c(c(OC)c4ccccc4c3O)C2=O)[C@H](O[C@H]2C[C@H](NC(=O)C(F)(F)F)[C@H](O)[C@H](C)O2)O1 (mixture of isomers) [BCH-675]: 7.94
3. CCOC(=O)C1CC2=C(C(=O)c3c(c(O)c4ccccc4c3OC)C2=O)C(O[C@H]2C[C@H](NC(=O)C(F)(F)F)[C@H](O)[C@H](C)O2)O1 (mixture of isomers) [BCH-689]: 12.6
4. COC(=O)[C@H]1CC2=C(C(=O)c3cc4ccccc4cc3C2=O)[C@H](O[C@H]2C[C@H](NC(=O)C(F)(F)F)[C@H](O)[C@H](C)O2)O1 [BCH-670]: 2.75
5. CCOC(=O)C1Cc2c(O)c3c(c(O)c2CO1)C(=O)c1ccccc1C3=O (stereo not drawn) [BCH-650]: 79.4
6. CCOC(=O)[C@@H]1CC2=C(C(=O)c3cc4ccccc4c(OC(C)=O)c3C2=O)[C@@H](O)O1 (mixture of isomers) [BCH-660]: 0.813
